B1: TPR t1 (parent)
chain: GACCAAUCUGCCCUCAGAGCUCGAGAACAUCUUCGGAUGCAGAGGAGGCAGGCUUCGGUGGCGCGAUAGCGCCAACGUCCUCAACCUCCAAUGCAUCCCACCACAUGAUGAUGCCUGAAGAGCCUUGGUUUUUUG

# Variants of: B1
# method-notes: polymerase ribozyme fitness, log enrichment relative to wild type (log ratio); higher = more active; in vitro selection for triplet polymerase activity
The variants listed here are annotated with their polymerase ribozyme fitness (log ratio).

For orientation, consider the following solved cases.
sequence-text	meas-value
GACCAAUCUGCCCUCAGAGCUCGAGAACAUCUUCGGAUGCAGAGGAGGCAGGCUUCGGUGGCGCGAUAGCGGCAACGUCCUCAACCUCCAAUGCAUCCCACCACAUGAUGAUGCCAGAAGAGCCUUGGUUUUUUG [C72G U116A]	-3.49
GACCAAUCUGCCCUCAGAGCUCGAGAACAUCUUCGGAUGCAGAGGAGGCAGGCUUCGGUGGCGCGAUAGCGCCCACGUCCUCAACCUCCAAUGCAUCCCACCACAUGAUGAUGCCUGAAGAGCCUUGGUUUUAUG [A74C U133A]	-0.0752
GAGCAAUCUGCCCUCAGAGCUCGAGAACAUCUUCGGAUGGAGAGGAGGCAGGCUUCGGUGGCGCGAUAGCGUCAACGUCCUCAACCUCCAAUGCAUCCCACCACAUGAUGAUGCCUGAAGGGCCUUGGUGUUUUG [C3G C40G C72U A121G U130G]	-0.331
GACCAAUCUGCCCUCAGAGCUCGUGAACAUCUUCGGAUGCAUUGGAGGCAGGCUUCGGUGGCGCGAUAGCGCCAACGUCCUCAACCUCCAAUGGAUCCCACCACAUGAUGAAGCCUGAAGAGCCUUGGAUUUUUG [A24U G42U A43U C94G U112A U129A]	-7.92
GACCAACCUGUCCUCAGAGCUCGAGAACAUCUUCGGAUGCAGAGGAGGCAGGCUUCGGUGGCGCGAUAGCGCUAACGUCCUCAACCUCCAAUUCAUCCCACCACAUGAUGAUGCCUGAAGAGCCUUGGUUUUUUG [U7C C11U C73U G93U]	-1.53
GACCAAUCAGCCCUCAGAGCUCGAGAACAUCUUCGGAUGCAGAGGAGGCAGGCUUCGGUGGCGCGAUAGCGCCAACGUCCUCAACCUCCAAUGCAUCCCACCACAUGAUGAUGCGUGAAGAGCCUUGGUUUUUUG [U9A C115G]	1.95

Request: Item under review: GACCAAUCUGCCCUCAGAGCUCGAGAACAUCUUCGGAUGCAGAGGAGGCAGGCUUCGGUAGCGCGAUAGCGCCAACGUCCUCAACCUCCAAUGCAUCCCACCACAUGAUGAUGCCUGAAGAGGCUUGGUUUUUUG [G60A C123G] . Reported polymerase ribozyme fitness (log ratio)?
Result: 1.63

Request: Item under review: GACCAAUCUGCCCUCAGAGCUCGAGAACAUCUUCGGAUGCAGAGGAGGCAGGUUUCGGUGGCGCGAUAGCGCCAACGUCCUCAACCUCCGAUGCGUCCCACCACAUGAUGAUGCCUGAAGAGCCUUGGUUUUUUG [C53U A90G A95G] . Reported polymerase ribozyme fitness (log ratio)?
Result: 0.749

Request: Item under review: GACCAAUCUGCCCUCAGAGCUCGAGAACAUCUUCGGAUGCAGAGGAGGCAGGCUUCGGUGGCGCGAUAGCGACAACGUCCUCAACCUCCAAUGCAUCCCACCACAUGAUGACGCCUGAAGAGCCUUGGUUUUUUG [C72A U112C] . Reported polymerase ribozyme fitness (log ratio)?
Result: 1.48
